assay: Drug level in adipose fat of C57BL/6 mouse assessed as cis-4-((1-(5-(5-(trifluoromethyl)-1H-benzo[d]imidazol-2-yl)pyridin-2-yl)piperidin-4-yl)oxy)cyclohexanecarboxylic acid level at 10 mg/kg, po after 24 hrs; format: ADME, organism-based, Adipose tissue; parameters: dose 10 mg/kg, route oral; settings: in vivo, read-out: Drug uptake
measurementLabel: concentration

Q. Name the recorded concentration for O=C(O)[C@H]1CC[C@H](OC2CCN(c3ccc(-c4nc5cc(C(F)(F)F)ccc5[nH]4)cn3)CC2)CC1 .
A. < 10 nM

---

assay: Clearance in Sprague-Dawley rat at 1 mg/kg, iv or 2 mg/kg, po; format: ADME, organism-based; conditions: in vivo
measurementLabel: clearance (mL/min/kg)
# output: bare number, implied unit mL/min/kg

Q. Name the recorded clearance for O=C(O)[C@H]1CC[C@H](OC2CCN(c3ccc(-c4nc5cc(C(F)(F)F)ccc5[nH]4)cn3)CC2)CC1 .
A. 5.82

---

test: Oral bioavailability in Beagle dog at 4 mg/kg; type: ADME, organism-based, Canis lupus familiaris; settings: in vivo
measurementLabel: bioavailability

Q. Name the recorded bioavailability for O=C(O)[C@H]1CC[C@H](OC2CCN(c3ccc(-c4nc5cc(C(F)(F)F)ccc5[nH]4)cn3)CC2)CC1 .
A. 126%

---

For Adenosine receptor A2a (Homo sapiens, UniProt P29274), measured Ki is reported for the entries below.
# output: bare number, implied unit µM

Q. Hi! What's the reported Ki for O=C(O)[C@H]1CC[C@H](OC2CCN(c3ccc(-c4nc5cc(C(F)(F)F)ccc5[nH]4)cn3)CC2)CC1 on Adenosine receptor A2a (Homo sapiens, UniProt P29274)?
A. 4.6

Q. Hi! What's the reported Ki for O=C(O)[C@H]1CC[C@H](OC2CCN(c3ccc(-c4nc5cc(F)ccc5[nH]4)cn3)CC2)CC1 on Adenosine receptor A2a (Homo sapiens, UniProt P29274)?
A. 9.7

---

assay: Drug level in plasma of C57BL/6 mouse at 10 mg/kg, po after 24 hrs; assay type: ADME, organism-based; design: dose 10 mg/kg, route oral
measurementLabel: concentration at 24 h

Q. Name the recorded concentration at 24 h for O=C(O)[C@H]1CC[C@H](OC2CCN(c3ccc(-c4nc5cc(C(F)(F)F)ccc5[nH]4)cn3)CC2)CC1 .
A. < 10 nM

---

assay: Drug level in liver of C57BL/6 mouse at 10 mg/kg, po after 3 hrs; format: ADME, organism-based; design: dose 10 mg/kg, route oral; conditions: read-out: Drug uptake
measurementLabel: concentration at 3 h (µM)
# output: bare number, implied unit µM

Q. Name the recorded concentration at 3 h for O=C(O)[C@H]1CC[C@H](OC2CCN(c3ccc(-c4nc5cc(C(F)(F)F)ccc5[nH]4)cn3)CC2)CC1 .
A. 21.6

---

test: AUC in Beagle dog at 4 mg/kg, po; format: ADME, organism-based, Canis lupus familiaris; set-up: dose 4 mg/kg, route oral; settings: plasma
measurementLabel: AUC (µM·h)
# output: bare number, implied unit µM·h

Q. Name the recorded AUC for O=C(O)[C@H]1CC[C@H](OC2CCN(c3ccc(-c4nc5cc(C(F)(F)F)ccc5[nH]4)cn3)CC2)CC1 .
A. 1.94

---

assay: Drug level in adipose fat of C57BL/6 mouse assessed as cis-4-((1-(5-(5-(trifluoromethyl)-1H-benzo[d]imidazol-2-yl)pyridin-2-yl)piperidin-4-yl)oxy)cyclohexanecarboxylic acid level at 10 mg/kg, po after 3 hrs; type: ADME, organism-based, Adipose tissue; set-up: dose 10 mg/kg, route oral; conditions: in vivo, read-out: Drug uptake
measurementLabel: concentration (nM)
# output: bare number, implied unit nM

Q. Name the recorded concentration for O=C(O)[C@H]1CC[C@H](OC2CCN(c3ccc(-c4nc5cc(C(F)(F)F)ccc5[nH]4)cn3)CC2)CC1 .
A. 21

---

Molecular target: Diacylglycerol O-acyltransferase 1 (Homo sapiens)
Sequence (O75907 whole entry): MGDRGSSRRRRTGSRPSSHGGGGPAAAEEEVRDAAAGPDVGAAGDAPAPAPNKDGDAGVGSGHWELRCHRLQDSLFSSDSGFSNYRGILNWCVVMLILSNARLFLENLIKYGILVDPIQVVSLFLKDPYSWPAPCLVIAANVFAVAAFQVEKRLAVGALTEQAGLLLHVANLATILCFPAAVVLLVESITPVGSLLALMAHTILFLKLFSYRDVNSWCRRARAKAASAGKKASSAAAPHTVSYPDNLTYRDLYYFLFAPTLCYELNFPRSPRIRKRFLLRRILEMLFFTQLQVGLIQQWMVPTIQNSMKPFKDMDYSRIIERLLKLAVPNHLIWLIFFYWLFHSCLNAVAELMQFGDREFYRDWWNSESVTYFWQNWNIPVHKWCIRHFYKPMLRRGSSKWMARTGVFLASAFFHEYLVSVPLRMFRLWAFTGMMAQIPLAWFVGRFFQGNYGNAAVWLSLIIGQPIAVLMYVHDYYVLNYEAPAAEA
measurementLabel: IC50
Please give the number followed by its unit.

• O=C(O)[C@H]1CC[C@@H](OC2CCN(c3ccc(-c4nc5cc(F)ccc5[nH]4)cn3)CC2)CC1 = 5.8 nM
• O=C(O)[C@H]1CC[C@@H](OC2CCN(c3ccc(-c4nc5cc(C(F)(F)F)ccc5[nH]4)cn3)CC2)CC1 = 2.5 nM

Q. Name the recorded IC50 for O=C(O)[C@H]1CC[C@@H](OC2CCN(c3ccc(-c4nc5cc(Cl)ccc5[nH]4)cn3)CC2)CC1 .
A. 2.2 nM

Q. Name the recorded IC50 for O=C(O)[C@H]1CC[C@H](OC2CCN(c3ccc(-c4nc5cc(Cl)ccc5[nH]4)cn3)CC2)CC1 .
A. 2.9 nM

---

assay: Drug level in skin of C57BL/6 mouse at 10 mg/kg, po after 24 hrs; type: ADME, organism-based, Zone of skin; design: dose 10 mg/kg, route oral; settings: read-out: Drug uptake
measurementLabel: concentration at 24 h (nM)
# output: bare number, implied unit nM

Q. Name the recorded concentration at 24 h for O=C(O)[C@H]1CC[C@H](OC2CCN(c3ccc(-c4nc5cc(C(F)(F)F)ccc5[nH]4)cn3)CC2)CC1 .
A. 167

---

target: UniProtKB Q12809
Sequence (Q12809 whole entry): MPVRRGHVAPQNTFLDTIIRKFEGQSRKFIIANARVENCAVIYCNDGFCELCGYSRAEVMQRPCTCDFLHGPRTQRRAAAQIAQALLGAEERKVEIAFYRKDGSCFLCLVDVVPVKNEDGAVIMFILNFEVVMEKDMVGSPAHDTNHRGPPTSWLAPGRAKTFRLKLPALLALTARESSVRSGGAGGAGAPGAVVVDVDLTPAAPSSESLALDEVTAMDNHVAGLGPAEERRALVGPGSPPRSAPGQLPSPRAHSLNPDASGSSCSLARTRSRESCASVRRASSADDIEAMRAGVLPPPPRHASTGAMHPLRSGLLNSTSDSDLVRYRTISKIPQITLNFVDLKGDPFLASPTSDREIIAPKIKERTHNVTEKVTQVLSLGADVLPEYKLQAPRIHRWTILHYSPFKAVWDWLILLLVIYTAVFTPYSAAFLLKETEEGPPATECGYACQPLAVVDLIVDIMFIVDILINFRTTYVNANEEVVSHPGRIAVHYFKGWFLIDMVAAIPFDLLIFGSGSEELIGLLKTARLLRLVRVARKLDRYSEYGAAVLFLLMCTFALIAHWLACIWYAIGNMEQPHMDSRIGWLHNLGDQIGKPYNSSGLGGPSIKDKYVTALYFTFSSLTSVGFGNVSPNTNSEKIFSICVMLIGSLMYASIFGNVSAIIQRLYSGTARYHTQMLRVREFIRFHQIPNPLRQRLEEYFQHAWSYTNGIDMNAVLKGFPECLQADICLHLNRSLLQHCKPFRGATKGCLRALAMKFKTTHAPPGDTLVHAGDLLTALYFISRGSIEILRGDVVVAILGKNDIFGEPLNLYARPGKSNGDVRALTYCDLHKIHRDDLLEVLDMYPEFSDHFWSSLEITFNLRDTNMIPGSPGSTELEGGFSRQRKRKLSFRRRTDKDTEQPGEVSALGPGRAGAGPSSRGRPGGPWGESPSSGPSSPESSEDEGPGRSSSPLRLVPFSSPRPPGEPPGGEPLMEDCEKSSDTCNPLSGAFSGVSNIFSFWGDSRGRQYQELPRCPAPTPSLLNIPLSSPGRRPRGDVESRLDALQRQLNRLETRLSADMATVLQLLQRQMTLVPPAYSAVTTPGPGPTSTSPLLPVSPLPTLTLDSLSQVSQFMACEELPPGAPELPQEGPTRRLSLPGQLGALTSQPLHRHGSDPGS
Param label: returns fulfilled when Ki < 10 µM, returns not fulfilled otherwise, including exact equality.

Q. Is the reported Ki for O=C(O)[C@H]1CC[C@@H](OC2CCN(c3ccc(-c4nc5cc(F)ccc5[nH]4)cn3)CC2)CC1 strictly below 10 µM?
A. not fulfilled

Q. Is the reported Ki for O=C(O)[C@H]1CC[C@@H](OC2CCN(c3ccc(-c4nc5cc(Cl)ccc5[nH]4)cn3)CC2)CC1 strictly below 10 µM?
A. not fulfilled

Q. Is the reported Ki for O=C(O)[C@H]1CC[C@H](OC2CCN(c3ccc(-c4nc5cc(Cl)ccc5[nH]4)cn3)CC2)CC1 strictly below 10 µM?
A. fulfilled

Q. Is the reported Ki for O=C(O)[C@H]1CC[C@@H](OC2CCN(c3ccc(-c4nc5cc(C(F)(F)F)ccc5[nH]4)cn3)CC2)CC1 strictly below 10 µM?
A. fulfilled

Q. Is the reported Ki for O=C(O)[C@H]1CC[C@H](OC2CCN(c3ccc(-c4nc5cc(F)ccc5[nH]4)cn3)CC2)CC1 strictly below 10 µM?
A. not fulfilled

---

assay: Drug level in adipose fat of C57BL/6 mouse at 10 mg/kg, po after 3 hrs; format: ADME, organism-based, Adipose tissue; parameters: dose 10 mg/kg, route oral; conditions: read-out: Drug uptake
measurementLabel: concentration at 3 h

Q. Name the recorded concentration at 3 h for O=C(O)[C@H]1CC[C@H](OC2CCN(c3ccc(-c4nc5cc(C(F)(F)F)ccc5[nH]4)cn3)CC2)CC1 .
A. 237 nM

---

assay: Drug level in plasma of C57BL/6 mouse at 10 mg/kg, po after 3 hrs; assay type: ADME, organism-based; parameters: dose 10 mg/kg, route oral
measurementLabel: concentration at 3 h (nM)
# output: bare number, implied unit nM

Q. Name the recorded concentration at 3 h for O=C(O)[C@H]1CC[C@H](OC2CCN(c3ccc(-c4nc5cc(C(F)(F)F)ccc5[nH]4)cn3)CC2)CC1 .
A. 324

---

assay: Half life in Beagle dog at 1 mg/kg, iv or 4 mg/kg, po; assay type: ADME, organism-based, Canis lupus familiaris; details: in vivo
measurementLabel: half-life (h)
# output: bare number, implied unit h

Q. Name the recorded half-life for O=C(O)[C@H]1CC[C@H](OC2CCN(c3ccc(-c4nc5cc(C(F)(F)F)ccc5[nH]4)cn3)CC2)CC1 .
A. 1.16

---

assay: Unbound fraction in mouse plasma; assay type: ADME, cell-free
measurementLabel: fraction unbound

Q. Name the recorded fraction unbound for O=C(O)[C@H]1CC[C@H](OC2CCN(c3ccc(-c4nc5cc(C(F)(F)F)ccc5[nH]4)cn3)CC2)CC1 .
A. 0.078
